Attribution: the Human Domainome abundance scans (Beltran et al. 2025)

B1: Calcium-binding protein 2, residues 155 to 219; numbered along this chain, Q9NPB3 (parent)
chain: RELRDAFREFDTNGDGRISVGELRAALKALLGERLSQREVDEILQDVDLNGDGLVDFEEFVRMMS

- Variants of: B1
- Assay summary: abundance fitness (aPCA) (normalised: wild type 0, dead -1); higher = more abundant; growth selection in yeast, the domain comes from the species named
- Settings: Homo sapiens
Measured attribute: abundance fitness
Give bare numbers.

Residue string	abundance fitness
GELRDAFREFDTNGDGRISVGELRAALKALLGERLSQREVDEILQDVDLNGDGLVDFEEFVRMMS [R1G]	-0.204
RELRDAFREFDTNGDGRISVGELRAALKALLGERLSQREVDEILQDHDLNGDGLVDFEEFVRMMS [V47H]	0.057

Count: 5. Required value per item: abundance fitness.
1. RELRDAFREFDTNGDGRISVGELRAALKALLGERLFQREVDEILQDVDLNGDGLVDFEEFVRMMS [S36F]
2. RELRDAFREFDTNGDGRISVGELRAALKALLGERLSQREVDEILQDVDLNGDGLVCFEEFVRMMS [D56C]
3. RELRDAFREFDTNGDGRISVGELRAALKALLTERLSQREVDEILQDVDLNGDGLVDFEEFVRMMS [G32T]
4. RELRDAFREFDTNGDGRISVGELRAALKALLGERLSQREVDEILQDVDLNGDGLVDFEEFERMMS [V61E]
5. RELRDAFREFDTNGDGRISVGALRAALKALLGERLSQREVDEILQDVDLNGDGLVDFEEFVRMMS [E22A]

Response line:
-0.085
-0.321
-0.526
0.012
-0.342
